What percent of negative control (+Dex) was measured for each of the following?
# Assay text: altered dexamethasone sensitivity, NF-kB reporter, cell-based, luciferase, IL-1B stimulus (AID 624486);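 further: 100% = mean signal of vehicle control wells on the plate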
# Run parameters: IL-1B + dexamethasone, luminescence; actives lie on both sides, concentration not given here
One number for each entry, in %.

{"columns": ["Mol smiles", "percent of negative control (+Dex) / %"],
 "data": [
  ["CS(=O)(=O)CCNCc1ccoc1-c1ccc2ncnc(Nc3ccc(OCc4ccccc4)cc3)c2c1", 80],
  ["COc1cc2ncn(-c3cc(OCc4ccccc4Cl)c(C(N)=O)s3)c2cc1OC", 112],
  ["Cc1cccc(Nc2ncc(-c3ccccc3)o2)c1", 272],
  ["COc1cccc(Nc2nccc(-c3cnn4ncccc34)n2)c1", 3],
  ["NC(=O)c1cccc(Nc2nccc(Nc3cccc4[nH]ncc34)n2)c1", 95.5]
]}

Count: 6. Required value per item: percent of negative control (+Dex).
1. COc1cc2ncn(-c3cc(OCCc4ccccc4)c(C(N)=O)s3)c2cc1OC
2. Nc1nonc1-c1nc2cnccc2n1C1CC1
3. COc1cccc(-n2ncc3c(N/N=C/c4ccc(S(C)(=O)=O)cc4)ncnc32)c1
4. NC(=O)Cc1ccccc1Oc1nccc(-c2c(-c3ccc(F)cc3)ncn2C2CCNCC2)n1
5. CS(=O)(=O)CCNCc1coc(-c2ccc3ncnc(Nc4ccc(OCc5ccccc5)cc4)c3c2)c1
6. COC(=O)Nc1nc2ccc(Sc3ccc(NC(=O)Nc4cc(C(F)(F)F)ccc4F)cc3)cc2[nH]1

1. 95
2. 45
3. 136
4. 105
5. 90
6. 96.5

Item under review: `NC(=O)c1cc(-c2ccc(F)cc2)cc(-c2ccncc2)c1N` . Reported percent of negative control (+Dex)?
92.5
